Test system: THP-1 cells
Assay: In vitro antiproliferative assay (WST-1)
Format: cell-based, human
Settings: Homo sapiens, THP-1, 24 h, WST-1, 24 h, highest concentration 30 μM, read-out: Tox IC50 (antiproliferative)
// values below are reported IC50

{"Compound": "O=C(/C=C/c1ccccc1)Nc1cc(Cl)cc(Cl)c1 [Compound 11]", "IC50": "≥ 30 µM"}
{"Compound": "Cc1cccc(NC(=O)/C=C/c2ccccc2)c1 [Compound 2]", "IC50": "≥ 30 µM"}
{"Compound": "CC[C@@]1(O)C(=O)OCc2c1cc1n(c2=O)Cc2cc3ccccc3nc2-1 [CMP, camptothecin, reference compound]", "IC50": "0.16 µM"}
{"Compound": "O=C(/C=C/c1ccccc1)Nc1cccc(C(F)(F)F)c1 [Compound 6]", "IC50": "22 µM"}
{"Compound": "O=C(/C=C/c1ccccc1)Nc1ccc(Cl)c(Cl)c1 [Compound 10]", "IC50": "≥ 30 µM"}
{"Compound": "O=C(/C=C/c1ccccc1)Nc1cc(C(F)(F)F)cc(C(F)(F)F)c1 [Compound 13]", "IC50": "22 µM"}
